The measured values listed here are drawn from patent US12023319B2.

Target: human Bradykinin B1 receptor (Homo sapiens)
Experiment: Calcium flux assay (FLIPR), CHO-K1 cells expressing human Bradykinin B1 receptor, absence of 0.1% BSA (hB1 free IC50)
Details: absence of 0.1% BSA in assay buffer
pIC50: −log10 of the molar value.
Quick reference for pIC50 among some compounds

compound: Cc1cc(NC(=O)C2(c3ccc(OC(F)(F)F)cc3F)CC2)cc(C(=O)O)c1-c1cnn(C2CCC2)c1
pIC50: 7.85
--
compound: CC1CCC(C2(C(=O)Nc3cc(F)c(-c4cnn(C5CCC5)c4)c(C(=O)O)c3)CC2)CC1 (stereo not drawn) [Example 145]
pIC50: 6.80
--
compound: O=C(O)c1cc(NC(=O)C2(c3ccc(OC(F)(F)F)cc3F)CC2)ccc1-c1cnn(C2CC2)c1
pIC50: 6.77
--
compound: CCC(F)(F)c1ccc(-c2ccc(NC(=O)C3(c4ccc(C(F)(F)F)cc4F)CC3)cc2C(=O)O)cn1
pIC50: 7.62
--
compound: CC(C)(C)Cn1cc(-c2ccc(NC(=O)C3(c4ccc(OC(F)(F)F)cc4F)CC3)cc2C(=O)O)cn1
pIC50: 7.77
--
compound: CC(C)n1cc(-c2c(F)cc(NC(=O)C3(c4ccc(C(F)(F)F)cc4F)CC3)cc2C(=O)O)cn1
pIC50: 7.49
--
compound: O=C(O)c1cc(NC(=O)C2(c3ccc(C(F)(F)F)cc3F)CC2)ccc1-c1ccc(C(F)(F)F)nc1
pIC50: 6.68
--
compound: Cc1cc(NC(=O)C2(c3ccc(OC(F)(F)F)cc3F)CC2)cc(C(=O)O)c1-c1ccc(C(F)F)nc1
pIC50: 6.24
--
compound: O=C(O)c1cc(NC(=O)C2(c3cc(F)ccc3F)CC2)ccc1-c1cnn(C2CCC2)c1
pIC50: 6.55
--
compound: CC(C)(C)c1ccn(-c2ccc(NC(=O)C3(c4ccc(C(F)(F)F)cc4F)CC3)cc2C(=O)O)n1
pIC50: 5.92
--
compound: Cc1cnc(-c2ccc(NC(=O)C3(c4ccc(C(F)(F)F)cc4F)CC3)cc2C(=O)O)cn1
pIC50: 5.68
--
compound: Cc1ccc(C2(C(=O)Nc3ccc(-c4cnn(C5CCC5)c4)c(C(=O)O)c3)CC2)cc1F
pIC50: 6.17
--
compound: COc1ccc(C2(C(=O)Nc3ccc(-c4cnn(C5CCC5)c4)c(C(=O)O)c3)CC2)c(F)c1
pIC50: 6.41
--
compound: O=C(O)c1cc(NC(=O)C2(c3ccc(Cl)cc3F)CC2)ccc1-c1cnn(C2CCC2)c1
pIC50: 7.49
--
compound: O=C(O)c1cc(NC(=O)C2(c3ccc(C(F)(F)F)cc3)CC2)cc(F)c1-c1cnn(C2CCC2)c1
pIC50: 8.22
--
compound: CC[C@@H](C)n1cc(-c2ccc(NC(=O)C3(c4ccc(C(F)(F)F)cc4F)CC3)cc2C(=O)O)cn1
pIC50: 7.23
--
compound: O=C(O)c1cc(NC(=O)C2(c3ccc(OC(F)(F)F)cc3F)CC2)ccc1-c1ccc(C(F)F)nc1
pIC50: 7.07
--
compound: CC(C)n1cc(-c2c(F)cc(NC(=O)C3(c4ccc(OC(F)(F)F)cc4)CC3)cc2C(=O)O)cn1
pIC50: 7.16

---

Target: human Bradykinin B1 receptor (Homo sapiens, UniProt P46663)
Sequence (P46663 1-353): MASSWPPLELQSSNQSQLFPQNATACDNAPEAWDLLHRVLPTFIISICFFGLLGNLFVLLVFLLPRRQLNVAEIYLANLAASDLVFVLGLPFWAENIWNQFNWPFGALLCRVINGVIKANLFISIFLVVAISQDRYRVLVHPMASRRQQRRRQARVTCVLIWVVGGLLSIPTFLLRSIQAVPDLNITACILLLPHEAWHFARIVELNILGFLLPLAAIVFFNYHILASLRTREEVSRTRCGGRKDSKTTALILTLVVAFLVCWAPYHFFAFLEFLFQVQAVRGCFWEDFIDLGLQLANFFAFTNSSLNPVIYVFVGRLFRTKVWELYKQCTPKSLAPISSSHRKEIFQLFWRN
Assay: Calcium flux assay (FLIPR), CHO-K1 cells expressing human Bradykinin B1 receptor, absence of 0.1% BSA (hB1 free IC50)
Conditions: absence of 0.1% BSA in assay buffer
pIC50: −log10 of the molar value.
Quick reference for pIC50 among some compounds
reportedEndpoint: pIC50

chemicalSmiles: CCOc1ccc(-c2ccc(NC(=O)C3(c4ccc(OC(F)(F)F)cc4F)CC3)cc2C(=O)O)cn1
reportedEndpoint: pIC50
quantitativeReadout: 7.72
//
chemicalSmiles: CCC(F)(F)c1ccc(-c2ccc(NC(=O)C3(c4ccc(OC(F)(F)F)cc4F)CC3)cc2C(=O)O)cn1
reportedEndpoint: pIC50
quantitativeReadout: 7.48
//
chemicalSmiles: O=C(O)c1cc(NC(=O)C2(c3ccc(Cl)cc3)CC2)cc(F)c1-c1cnn(C2CCC2)c1
reportedEndpoint: pIC50
quantitativeReadout: 7.59
//
chemicalSmiles: CCC(F)(F)c1ccc(-c2c(F)cc(NC(=O)C3(c4ccc(C(F)(F)F)cc4F)CC3)cc2C(=O)O)cn1
reportedEndpoint: pIC50
quantitativeReadout: 8.09

---

Target: human Bradykinin B1 receptor (Homo sapiens, UniProt P46663)
Experiment: Calcium flux assay (FLIPR), CHO-K1 cells expressing human Bradykinin B1 receptor, absence of 0.1% BSA (hB1 free IC50)
Conditions: absence of 0.1% BSA in assay buffer
reportedEndpoint: IC50 (µM)

chemicalSmiles: CC(C)n1cc(-c2c(F)cc(NC(=O)C3(c4ccc(Cl)cc4F)CC3)cc2C(=O)O)cn1
quantitativeReadout: 0.021
//
chemicalSmiles: O=C(O)c1cc(NC(=O)C2(c3ccc(C(F)(F)F)cc3F)CC2)cc(F)c1-c1ccc(C(F)(F)F)nc1
quantitativeReadout: 0.013
//
chemicalSmiles: Cc1ccc(C2(C(=O)Nc3ccc(-c4cnn(C5CCC5)c4)c(C(=O)O)c3)CC2)c(F)c1
quantitativeReadout: 0.12
